meta.source: paper PMC10922391

# Tested on: comCDE locus
# procedureText: Luciferase reporter assay of comCDE locus activation
# Type: cell-based, S. sanguinis VMC66
# testContext: PcomCDEluc reporter; luminescence, 20 min, 37 °C
readoutLabel: activity relative to each other / activity class of CSP derivatives

1. H-WDLRGVPNPWGWIFGR-OH [16mer]    similarly active
2. H-FWDLRGVPNPWGWIFGR-OH [17mer]    inactive
3. H-DLRGVPNPWGWIFGR-OH [15mer]    similarly active
4. H-TFWDLRGVPNPWGWIFGR-OH [18mer]    inactive
